# Test system: RXF 393 renal
# Assay: NCI-60 one-dose screen, 48 h (100 = growth as untreated, 0 = no growth, -100 = all killed)
# Measurement Setup: 10 µM unless noted
Compounds without any hit were thinned out: in the full panel of roughly 83,000, 20% have a hit. The source made the active and inactive calls. The calls were made as follows: active = growth percent below 10; inactive = the rest.
The following compounds are listed with their measured growth values.

[
  {
    "Compound": "COc1ccc(NC(=O)CSc2nnc(-c3cc(-c4ccccc4)nc4ccccc34)n2-c2ccccc2)cc1",
    "growth": "99% (inactive)"
  },
  {
    "Compound": "COc1ccc(C2=NN(C(=O)c3cc(OC)c(OC)c(OC)c3)C(c3ccc(Cl)cc3)C2)cc1OC (stereo not given)",
    "growth": "22.6% (inactive)"
  },
  {
    "Compound": "Cc1ccc(S(=O)(=O)NCC[C@@H]2C[C@H]2c2cc3ccccc3s2)cc1",
    "growth": "103% (inactive)"
  },
  {
    "Compound": "O=[N+]([O-])c1ccc(OCCO)cc1",
    "growth": "105% (inactive)"
  },
  {
    "Compound": "COc1cccc(C(=O)NCCCNc2cc(-c3cn(-c4ccccc4)nc3-c3cccc(OC)c3)ccn2)c1",
    "growth": "66.8% (inactive)"
  },
  {
    "Compound": "COc1ccc(-c2csc(C3=C(O)CN(C(C)C)C3=N)n2)cc1OC",
    "growth": "83.6% (inactive)"
  },
  {
    "Compound": "CC(=O)OC1CCC2(C)C(=CC3C4CCC(=O)C4(C)CCC32)C1 (stereo not given)",
    "growth": "115% (inactive)"
  },
  {
    "Compound": "COC(=O)c1c2c(c(C)[n+]([O-])c1C)C(=O)C(NCc1ccc(F)cc1)=CC2=O",
    "growth": "56.9% (inactive)"
  },
  {
    "Compound": "c1csc(-c2c3ccc(=[N+]4CCCCC4)cc-3oc3cc(N4CCCCC4)ccc23)c1",
    "growth": "-97% (active)"
  },
  {
    "Compound": "Cc1ccccc1NC(=O)N/C(N)=N/c1nc(C)c(C)s1",
    "growth": "0.637% (active)"
  }
]
